Values from ChEMBL document CHEMBL1201862

Exercise: for every item that follows, state its recorded GI50.
tested on: HOP-62; test: NCI tumour cell line growth inhibition, 48 h
Activity calls are given as the source filed them. No stated cut-off is given here; in the data, active = GI50 up to about 1.1 µM and inactive = higher.

Lab entry: HOP-62 assay, molecule Cc1cccc(CC(Cc2c(C)cccc2C(=O)O)C(=O)O)c1 (stereo not given) , GI50 = > 100 µM (inactive)

Lab entry: HOP-62 assay, molecule CCOC(=O)C1=C(C)C(C(=O)OC)/C(=C/c2cccc3cccnc23)C1=O (stereo not given) , GI50 = > 10 µM (inactive)

Lab entry: HOP-62 assay, molecule O=C1NC(=S)NC(=O)C1=Cc1ccc[nH]1 , GI50 = 32.6 µM (inactive)

Report GI50 for every entry below.
1. CN/C(=N/C#N)NCc1ccccc1
2. C=C[Si](C)(C)COC(=O)/C(C#N)=C/C=C/c1ccccc1
3. CCCCCCCCCC(=O)OCC1(CO)C/C(=C/CC(C(C)C)C(C)C)C(=O)O1 (stereo not given)
4. Cc1cc(Cc2cc(C)c(NC(=O)C(=O)C3C(=O)NC(=S)NC3=O)c(C(C)C)c2)cc(C(C)C)c1NC(=O)C(=O)C1C(=O)NC(=S)NC1=O

Reply text:
1. > 100 µM (inactive)
2. > 100 µM (inactive)
3. 30 µM (inactive)
4. > 100 µM (inactive)

----------
tested on: HOP-62; experiment: NCI tumour cell line growth inhibition, 48 h
Active and inactive are the calls of the source. Rule as the data show it: active = GI50 up to about 1.1 µM and inactive = higher.
Write down the outcome that applies. Available outcomes: active, inactive

A selection of reference data follows.
Inquiry: How did this test come out for CN(C)/C=N\c1c(Br)cc(Br)c2nonc12 ?
Reply text: inactive

Inquiry: How did this test come out for O=[N+]([O-])/C=C/COCc1cc2c(cc1Br)OCO2 ?
Reply text: inactive

Inquiry: How did this test come out for COC(=O)/C=C(\S/C(=C(/c1ccccc1)n1cc(C(=O)OC)c(C(=O)OC)n1)c1ccccc1)C(=O)OC ?
Reply text: inactive

Inquiry: How did this test come out for CCN(CC)CCSc1c2cc(OC)ccc2nc2ccc(OC)cc12 ?
Reply text: inactive

Further cases:
Inquiry: How did this test come out for C=C1C(=O)OC2/C=C(\C)CC(O)/C=C(/CO)CC(OC(=O)/C(C)=C/C)C12 (stereo not given) ?
Reply text: inactive

Inquiry: How did this test come out for Cc1cccc(-n2c(=S)[nH]c3c(sc(=O)n3-c3ccccc3C)c2=O)c1 ?
Reply text: inactive

Inquiry: How did this test come out for CSC(=S)N/N=C(\C)c1cccc(C)n1 ?
Reply text: active

Inquiry: How did this test come out for CC(NC(=O)c1ccc(NP(=O)(OCc2ccc([N+](=O)[O-])o2)N(C)CCCCCl)cc1)c1ccc(OCC2CCCCC2)c(C(N)=O)c1 (stereo not given) ?
Reply text: inactive

Inquiry: How did this test come out for CN(C)c1ccc(C=C2C(=O)NC(=S)NC2=O)c2ccccc12 ?
Reply text: inactive

Inquiry: How did this test come out for CCCC(=O)Oc1cc(OC(=O)CCC)c2c(C)cc(=O)oc2c1 ?
Reply text: inactive

----------
tested on: SN12C; assay: NCI tumour cell line growth inhibition, 48 h
Activity calls are given as the source filed them. Cut-off read from the data, not from the text of the source: active = GI50 up to about 1.1 µM and inactive = higher.
metric.name: GI50

Report GI50 for every entry below.
1. COc1cc(OC)nc(-n2c(N)c(C#N)c3ccc([N+](=O)[O-])cc3c2=O)n1
2. O=[N+]([O-])c1ccc2sc(/C=N/c3ccccn3)cc2c1
3. O/N=C1/C(=C/c2ccc(OCc3ccccc3)cc2)CCCC1C(NO)c1ccc(OCc2ccccc2)cc1 (stereo unspecified)
4. CCCCCCCCCCCCCCCCCCNc1ccn(C2OC(COP(=O)(O)OCC3OC(n4cc(C)c(=O)[nH]c4=O)CC3F)C(O)C2O)c(=O)n1 (stereo unspecified)
5. O=C1NC(=S)NC(=O)C1=Cc1ccc[nH]1
6. CCOC(=O)[C@@]12CCC(C1=O)[C@](C)(O)C[C@@H]2c1ccccc1
7. CCCC/C(C)=N/NC(N)=S
8. NCCCn1c2ccccc2c2c3c(c4c(c21)CCC(O)CC4)C(=O)NC3=O (stereo unspecified)

Reply text:
1: > 100 µM (inactive); 2: 88.7 µM (inactive); 3: 3.31 µM (inactive); 4: 7.87 µM (inactive); 5: 10.6 µM (inactive); 6: 24.8 µM (inactive); 7: > 100 µM (inactive); 8: 2.42 µM (inactive)

----------
system: T47D; assay: NCI tumour cell line growth inhibition, 48 h
Active and inactive are the calls of the source. Rule as the data show it: active = GI50 up to about 1.1 µM and inactive = higher.
Write down the outcome that applies. Available outcomes: true (1) = active, false (0) = inactive

Inquiry: How did this test come out for O=[N+]([O-])c1c(Br)cc(Br)c2c1Nc1c(ccc(Cl)c1Cl)S2 ?
Reply text: false (0)

Further cases:
Inquiry: How did this test come out for c1ccc(-c2cnc3nc4ccccc4nc3n2)cc1 ?
Reply text: false (0)

Inquiry: How did this test come out for Cc1nc(N)c(N2CCN(C(=O)O)CC2)c(O)n1 ?
Reply text: false (0)

Inquiry: How did this test come out for CCOC(=O)C1(Cc2ccc(C)cc2)Cc2ccc(C)cc2C1=O (stereo unspecified) ?
Reply text: false (0)

Inquiry: How did this test come out for Cc1cc(O)c(C(O)c2ccccn2)cc1O (stereo unspecified) ?
Reply text: false (0)

Inquiry: How did this test come out for O=C(NC1=C(Cl)C(=O)c2ccccc2C1=O)C(=O)c1c(O)c2ccccc2oc1=O ?
Reply text: false (0)

Inquiry: How did this test come out for Oc1ccc(CNCc2ccccc2)c2cccnc12 ?
Reply text: true (1)

----------
tested on: A549; assay: NCI tumour cell line growth inhibition, 48 h
Active and inactive are the calls of the source. Cut-off read from the data, not from the text of the source: active = GI50 up to about 1.1 µM and inactive = higher. Residues, ends and D or L forms follow the SMILES beside them. *: point of attachment. Boc = CC(C)(C)OC(=O)*
Write down the outcome that applies. Available outcomes: t (active), f (inactive)

Inquiry: How did this test come out for CN/C(=N/C#N)NCc1ccccc1 ?
Reply text: f

Inquiry: How did this test come out for CC(C)[Si](OC1=C(C(=O)N(C)c2cccc(Cl)c2)CCCC1)(C(C)C)C(C)C ?
Reply text: f

Inquiry: How did this test come out for NC(=O)c1c[se]c(C2OC(CO)C(O)C2O)n1 (stereo not given) ?
Reply text: f

Inquiry: How did this test come out for OC1C2CCCCN2C[C@@H](O)[C@H]1O (stereo not given in full) ?
Reply text: f

Inquiry: How did this test come out for O=C(/C=C/NC(=O)OCc1ccccc1)OCc1ccccc1 ?
Reply text: f

Inquiry: How did this test come out for C/C(=N\Nc1nc2cc(C)ccc2s1)c1ccccn1 ?
Reply text: t

Inquiry: How did this test come out for COC(=O)C(Cc1c[nH]c2ccccc12)NC(=O)C(Cc1c[nH]c2ccccc12)NC(=O)C(Cc1c[nH]c2ccccc12)NC(=O)C(Cc1c[nH]c2ccccc12)NC(=O)OC(C)(C)C (stereo not given) (Boc-WWWW-OMe; configuration not given here) ?
Reply text: f

Inquiry: How did this test come out for O=C1c2ccccc2-c2ccc(O)cc21 ?
Reply text: f

Inquiry: How did this test come out for c1ccc2cc(-c3cc(-c4cc(-c5ccc6ccccc6c5)on4)no3)ccc2c1 ?
Reply text: f

Inquiry: How did this test come out for C=C1C(OC(C)=O)CC(OC(C)=O)C2(C)C(OC(C)=O)C(OC(C)=O)C3=C(C)C(OC(=O)/C=C/c4ccccc4)CC(C(OC(C)=O)C12)C3(C)C (stereo not given) ?
Reply text: f

Further cases:
Inquiry: How did this test come out for COC(=O)/C=C/c1cnc2c(c1)oc(=O)n2C ?
Reply text: f

Inquiry: How did this test come out for CN(NC(=O)CCCl)C1=NCCN1 ?
Reply text: f

----------
test system: 786-0; assay: NCI tumour cell line growth inhibition, 48 h
Active and inactive are the calls of the source. Cut-off read from the data, not from the text of the source: active = GI50 up to about 1.1 µM and inactive = higher.
Exercise: for every item that follows, state its recorded GI50.

Some solved cases for reference:
The molecule listed as O=[N+]([O-])/C=C/c1cc2ccc3ccccc3c2[nH]1 shows GI50 equal to 1.36 µM (inactive)

The molecule listed as O=C(CCC1OCCO1)Nc1cc(NCc2ccccc2)ccc1OCc1ccccc1 shows GI50 equal to > 100 µM (inactive)

The molecule listed as O=c1c(Nc2ccccc2)cn(CCOc2ccc(Cl)cc2)c(=O)n1CCOc1ccc(Cl)cc1 shows GI50 equal to 28.1 µM (inactive)

The molecule listed as O=C1/C(=C/c2ccco2)N=C2Sc3c([nH]cnc3=O)N12 shows GI50 equal to > 100 µM (inactive)

Report GI50 for every entry below.
1. CCCC(=O)Oc1cc(OC(=O)CCC)c2c(C)cc(=O)oc2c1
2. CCOc1ccc(N/C(=C(/C(Cl)=C(/Cl)N2CCCCC2)[N+](=O)[O-])n2nnc3ccccc32)cc1

Reply text:
1. 82.6 µM (inactive)
2. 18.7 µM (inactive)

----------
Entries with their measured log10 GI50, system HCT-15:
Units before log transform: µM; reported quantity: GI50; transform: log10.

Some solved cases for reference:
Lab entry: HCT-15 assay, compound O=C(CCC1OCCO1)Nc1cc(NCc2ccccc2)ccc1OCc1ccccc1 , log10 GI50 = 1.55

Lab entry: HCT-15 assay, compound N#CC1=C(N)OC(c2cccc([N+](=O)[O-])c2)C1(C#N)C#N (stereo not drawn) , log10 GI50 = 1.27

Report log10 GI50 for every entry below.
1. COc1ccc2c3c(ccc2c1)NC(C(=O)O)CC3 (stereo not drawn)
2. COc1ccc(C(=O)/C=C2\Nc3cccnc3N\C2=C/C(=O)c2ccc(OC)cc2)cc1
3. NC1=NS(=O)(=O)Nc2nc(-c3ccc([N+](=O)[O-])o3)[nH]c21
4. O=[N+]([O-])c1ccc2sc(/C=N/c3ccccn3)cc2c1
5. CCC/C(=N\NC(=O)c1cc2ccccc2cc1O)C(CC)C(=O)CCC(=O)N(Cc1ccccc1)Cc1ccccc1 (stereo not drawn)
6. O=c1[nH]cnc2[nH]nnc12
7. COc1ccc(NC(C)=O)cc1N1C(=O)/C(=C\c2cccc(Oc3ccccc3)c2)SC1c1ccccc1 (stereo not drawn)
8. N#CC(c1nc2ccccc2nc1Cl)S(=O)(=O)c1ccccc1 (stereo not drawn)

Reply text:
1. 1.71
2. 1.51
3. 1.30
4. 1.71
5. 1.58
6. 1.06
7. 1.52
8. 1.73
